- experimentalTarget: T1, human CD40 on cells (human, UniProt P25942 21-277)
- T1 construct: whole, on cells; The cell line used is named in each row's assay; also called hCD40; TNFRSF5
- T1 sequence (P25942 21-277): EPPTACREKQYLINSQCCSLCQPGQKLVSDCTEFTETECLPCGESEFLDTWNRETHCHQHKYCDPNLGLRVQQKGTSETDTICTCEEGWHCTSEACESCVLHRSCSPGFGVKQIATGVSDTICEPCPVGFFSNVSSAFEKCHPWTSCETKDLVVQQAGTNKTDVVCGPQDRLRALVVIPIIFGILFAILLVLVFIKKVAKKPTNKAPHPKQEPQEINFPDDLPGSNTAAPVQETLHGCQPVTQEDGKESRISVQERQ
- protocolDescription: FACS, CHO-K1/hCD40 cells
Would you kindly list Maximum MFI for each of these binders?
Numbers only, in MFI.

Solved entries:
PR006515 (antibody, human IgG1, kappa, V domains shown, PR003379 variant L:S93M; human IgG1 L234A, L235A, G237A) VH: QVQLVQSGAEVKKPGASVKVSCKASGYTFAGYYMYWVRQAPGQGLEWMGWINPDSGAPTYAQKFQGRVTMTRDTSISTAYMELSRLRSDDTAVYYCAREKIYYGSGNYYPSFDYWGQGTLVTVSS VL: DIQLTQSPSFLSASVGDRVTITCRASQGISSYLAWYQQKPGKAPKLLIYAASTLQSGVPSRFSGSGSGTEFTLTISSLQPEDFATYYCQQLNMYPWTFGQGTKVEIKR	86300
PR006498 (antibody, human IgG1, kappa, V domains shown, PR003379 variant L:N92I; human IgG1 L234A, L235A, G237A) VH: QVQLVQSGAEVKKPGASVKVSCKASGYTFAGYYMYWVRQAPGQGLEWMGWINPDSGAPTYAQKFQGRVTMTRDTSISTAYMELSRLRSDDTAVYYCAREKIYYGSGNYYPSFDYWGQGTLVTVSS VL: DIQLTQSPSFLSASVGDRVTITCRASQGISSYLAWYQQKPGKAPKLLIYAASTLQSGVPSRFSGSGSGTEFTLTISSLQPEDFATYYCQQLISYPWTFGQGTKVEIKR	77700
PR006513 (antibody, human IgG1, kappa, V domains shown, PR003379 variant L:S93Q; human IgG1 L234A, L235A, G237A) VH: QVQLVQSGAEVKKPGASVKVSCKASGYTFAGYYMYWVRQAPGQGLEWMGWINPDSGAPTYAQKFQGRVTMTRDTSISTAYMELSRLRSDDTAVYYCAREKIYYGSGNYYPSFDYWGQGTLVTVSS VL: DIQLTQSPSFLSASVGDRVTITCRASQGISSYLAWYQQKPGKAPKLLIYAASTLQSGVPSRFSGSGSGTEFTLTISSLQPEDFATYYCQQLNQYPWTFGQGTKVEIKR	89200
PR006500 (antibody, human IgG1, kappa, V domains shown, PR003379 variant L:N92M; human IgG1 L234A, L235A, G237A) VH: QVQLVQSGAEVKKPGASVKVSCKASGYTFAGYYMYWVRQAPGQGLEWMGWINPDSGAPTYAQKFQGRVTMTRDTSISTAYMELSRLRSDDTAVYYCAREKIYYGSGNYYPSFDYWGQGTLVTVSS VL: DIQLTQSPSFLSASVGDRVTITCRASQGISSYLAWYQQKPGKAPKLLIYAASTLQSGVPSRFSGSGSGTEFTLTISSLQPEDFATYYCQQLMSYPWTFGQGTKVEIKR	85900

Switching to the query record.
Request: For the binder PR001306 (CDX-1140) (antibody, human IgG2, kappa, V domains shown, CD40 positive control antibody) VH: QVQLVESGGGVVQPGKSLRLSCAASGFTFSSNGIHWVRQAPGKGLEWVAVIWSDGSNKFYADSVKGRFTISRDNSKNTLYLQMNSLRAEDTAVYYCARASGSGSYYNFFDYWGQGTLVTVSS VL: EIVMTQSPATLSVSPGERATLSCRASQSVRSNLAWYQQKPGQAPRLLIYGASTRATGIPARFSGSGSGTEFTLTINSLQSEDFAVYYCQQHNKWITFGQGTRLEIKR , what Maximum MFI is on record?
Response: 29200

Value source: patent US20250215100A1
